- TARGET ENTITY: PE-labeled human PD-L1-Ig binding to Jurkat cell line over-expressing human PD-1 (Jurkat-PD-1) (Homo sapiens)
- Construct: expressed in transfected cells; host or cells: Jurkat
- Sequence (Q15116 25-288): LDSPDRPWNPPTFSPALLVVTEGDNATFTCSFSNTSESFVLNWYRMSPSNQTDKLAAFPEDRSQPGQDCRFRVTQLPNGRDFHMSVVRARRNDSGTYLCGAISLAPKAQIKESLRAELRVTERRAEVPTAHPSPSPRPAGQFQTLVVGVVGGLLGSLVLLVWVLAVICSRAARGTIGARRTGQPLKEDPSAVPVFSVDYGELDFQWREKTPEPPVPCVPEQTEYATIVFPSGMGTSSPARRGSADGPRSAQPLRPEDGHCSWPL
- ASSAY: Jurkat-PD-1 Cell Binding High-Content Screening Assay (CBA): Method 1
- EXPERIMENTAL PARAMETERS: Jurkat-hPD-1 cells, PE-labeled PD-L1-Ig 20 nM final; read-out: Jurkat HPDL1 PD1 IC50 (uM) (Method 1)
Bridge positions count the residues as written; N and C are the ends. Square brackets hold non-standard residues; d marks the D form. Peptide text beside a SMILES is read from it. Bip = N[C@@H](Cc1ccc(-c2ccccc2)cc1)C(=O)O; Phe(3-Me) = Cc1cccc(C[C@H](N)C(=O)O)c1; NMeA = CN[C@@H](C)C(=O)O; Dab = NCC[C@H](N)C(=O)O
RESULT TYPE: IC50

- COMPOUND: "Cc1cccc(C[C@@H]2NC(=O)[C@H](Cc3ccccc3)NC(=O)CSC[C@@H](C(=O)NCC(N)=O)NC(=O)[C@H](CO)NC(=O)[C@H](C(C)C)NC(=O)[C@H](CC(C)C)NC(=O)[C@H](CC(N)=O)NC(=O)[C@@H](CC(C)C)NC(=O)[C@H](C)N(C)C(=O)[C@H](C(C)C)NC(=O)[C@H](Cc3ccc(-c4ccccc4)cc3)NC(=O)[C@H](CC(C)C)NC(=O)[C@H](Cc3c[nH]c4ccccc34)NC(=O)[C@H](CC(=O)O)NC2=O)c1 [Compound 1518] ({CH2CO}-F[Phe(3-Me)]DWL[Bip]V[NMeA][dL]NLVSCG-NH2; thioether N-14)"
  OBSERVED RESULT: "0.05 µM"
- COMPOUND: "CC(C)C[C@@H]1NC(=O)[C@H](CCN)NC(=O)[C@@H](CC(C)C)NC(=O)[C@H](C)N(C)C(=O)[C@H](CCCNC(=N)N)NC(=O)[C@H](Cc2ccc(-c3ccccc3)cc2)NC(=O)[C@H](C(C)C)NC(=O)[C@H](Cc2c[nH]c3ccccc23)NC(=O)[C@H](CC(=O)O)NC(=O)[C@H](Cc2cnc[nH]2)NC(=O)[C@H](Cc2cnc[nH]2)NC(=O)CSC[C@@H](C(=O)N[C@@H](C)C(N)=O)NC(=O)[C@H]([C@@H](C)O)NC(=O)[C@H](C(C)C)NC1=O [Compound 1142] ({CH2CO}-HHDWV[Bip]R[NMeA][dL][Dab]LVTCA-NH2; thioether N-14)"
  OBSERVED RESULT: "0.24 µM"

----------
- TARGET ENTITY: PE-labeled human PD-L1-Ig binding to Jurkat cell line over-expressing human PD-1 (Jurkat-PD-1) (Homo sapiens)
- Construct: expressed in transfected cells; host or cells: Jurkat
- ASSAY: Jurkat-PD-1 Cell Binding High-Content Screening Assay (CBA): Method 1
- EXPERIMENTAL PARAMETERS: Jurkat-hPD-1 cells, PE-labeled PD-L1-Ig 20 nM final; read-out: Jurkat HPDL1 PD1 IC50 (uM) (Method 1)
Bridge positions count the residues as written; N and C are the ends. Square brackets hold non-standard residues; d marks the D form. Peptide text beside a SMILES is read from it. Bip = N[C@@H](Cc1ccc(-c2ccccc2)cc1)C(=O)O; NMeA = CN[C@@H](C)C(=O)O
Listed here: items and their measured IC50.

- COMPOUND: "CC(C)C[C@@H]1NC(=O)[C@H](Cc2c[nH]c3ccccc23)NC(=O)[C@H](CC(=O)O)NC(=O)[C@H](Cc2ccc(O)cc2)NC(=O)[C@H](CC(N)=O)NC(=O)CSC[C@@H](C(=O)NCC(N)=O)NC(=O)[C@H](CO)NC(=O)[C@H](C(C)C)NC(=O)[C@H](CC(C)C)NC(=O)[C@H](CC(N)=O)NC(=O)[C@H](CC(N)=O)NC(=O)[C@H](C)N(C)C(=O)[C@H](C(C)C)NC(=O)[C@H](Cc2ccc(-c3ccccc3)cc2)NC1=O [Compound 1822] ({CH2CO}-NYDWL[Bip]V[NMeA]NNLVSCG-NH2; thioether N-14)"
  IC50: "0.58 µM"
- COMPOUND: "CC(C)C[C@@H]1NC(=O)[C@H](Cc2c[nH]c3ccccc23)NC(=O)[C@H](CC(=O)O)NC(=O)[C@H](Cc2ccc(O)cc2)NC(=O)[C@H](Cc2ccccc2)NC(=O)CSC[C@@H](C(=O)N[C@@H](C)C(N)=O)NC(=O)[C@H]([C@@H](C)O)NC(=O)[C@H](C(C)C)NC(=O)[C@H](CC(C)C)NC(=O)[C@H](CC(N)=O)NC(=O)[C@@H](CC(C)C)NC(=O)[C@H](C)N(C)C(=O)[C@H](C(C)C)NC(=O)[C@H](Cc2ccc(-c3ccccc3)cc2)NC1=O [Compound 1467] ({CH2CO}-FYDWL[Bip]V[NMeA][dL]NLVTCA-NH2; thioether N-14)"
  IC50: "0.02 µM"
